Biological target: Adrenergic receptor alpha
Assay: Inhibition of [3H]WB-4101 binding to alpha adrenergic receptor from rat cerebral cortical membranes
Assay type: cell membranes, Membrane
Give measured Ki for each item. Keep answers brief.
Give the number; µM is assumed, so skip it.

Reported Ki of COc1cc(C[C@@H]2NCCc3cc(O)c(O)cc32)cc(OC)c1OC : 10

Reported Ki of COc1ccc(C[C@H]2NCCc3cc(OC)c(O)cc32)cc1O : 10

Reported Ki of COc1ccc(CC2NCCc3cc(OC)c(OC)cc32)cc1OC (stereo not drawn) [TETRAHYDROPAPAVERINE] : 10
